This collection of values is drawn from patent US20080076751A1.

- target-or-test-system: TRPV1 (VR1) (Rattus norvegicus, UniProt O35433)
- Construct: expressed in transfected cells; host or cells: HEK293-TetOFF, expression induced by withdrawing doxycycline
- Sequence (O35433 whole entry): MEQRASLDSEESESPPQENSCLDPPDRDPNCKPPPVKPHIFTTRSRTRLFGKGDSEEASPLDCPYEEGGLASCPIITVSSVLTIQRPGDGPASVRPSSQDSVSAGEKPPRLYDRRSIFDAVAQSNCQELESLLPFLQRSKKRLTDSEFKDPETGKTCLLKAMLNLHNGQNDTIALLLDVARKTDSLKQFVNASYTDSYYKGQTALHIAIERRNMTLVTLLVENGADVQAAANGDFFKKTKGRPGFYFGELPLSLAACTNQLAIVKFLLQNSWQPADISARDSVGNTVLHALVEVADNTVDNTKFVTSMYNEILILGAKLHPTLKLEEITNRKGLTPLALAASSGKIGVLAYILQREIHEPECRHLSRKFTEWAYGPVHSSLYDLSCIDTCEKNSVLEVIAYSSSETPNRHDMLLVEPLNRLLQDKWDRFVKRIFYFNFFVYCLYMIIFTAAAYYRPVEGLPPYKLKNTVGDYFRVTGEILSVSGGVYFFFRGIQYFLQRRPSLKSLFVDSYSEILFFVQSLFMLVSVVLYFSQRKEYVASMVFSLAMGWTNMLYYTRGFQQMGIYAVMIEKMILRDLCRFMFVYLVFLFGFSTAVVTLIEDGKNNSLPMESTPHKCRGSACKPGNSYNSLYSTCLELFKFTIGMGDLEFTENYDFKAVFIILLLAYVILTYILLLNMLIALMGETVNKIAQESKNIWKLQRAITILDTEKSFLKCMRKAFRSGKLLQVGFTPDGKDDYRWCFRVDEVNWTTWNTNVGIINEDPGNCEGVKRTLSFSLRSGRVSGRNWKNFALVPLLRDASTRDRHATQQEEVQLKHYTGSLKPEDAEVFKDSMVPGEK
- measurement-protocol: TRPV1 screening assay (FLIPR, Fluo-4 calcium), capsaicin stimulation
- Assay type: cell-based
- condition-summary: reference antagonist in reagent preparation; read-out: IC50 of competitive antagonist capsazepine
pIC50: −log10 of the molar value.
measure: pIC50

Provide only the value of recorded pIC50 for Oc1cc2c(cc1O)CN(C(=S)NCCc1ccc(Cl)cc1)CCC2 [capsazepine, reference compound]
~6.30

* * *

- target-or-test-system: TRPV1 (VR1) (Rattus norvegicus, UniProt O35433)
- Construct: expressed in transfected cells; host or cells: HEK293-TetOFF, expression induced by withdrawing doxycycline
- measurement-protocol: TRPV1 screening assay (FLIPR, Fluo-4 calcium), PMA stimulation
- Type: cell-based
- condition-summary: HEK293-TetOFF-TRPV1, PMA
pIC50: −log10 of the molar value.
Class label 1: pIC50 at least 8. Class label 0: pIC50 below 8.

- molecule: "CC(C)c1ccc(NC(=O)N2CCC3(CC2)CN(c2ccccc2)C3=O)cc1"
  class-label: "label 1"
- molecule: "CC(C)(C)C1CCC(NC(=O)N2CCC3(CC2)CN(c2ccccc2)C3=O)CC1 (single isomer, unassigned)"
  class-label: "label 0"
- molecule: "CCC(C)c1ccc(NC(=O)N2CCC3(CC2)C(=O)N(c2ccccc2)C3c2ccccc2)cc1 (stereo not drawn)"
  class-label: "label 0"
- molecule: "CC(C)(C)c1ccc(NC(=O)N2CCC3(CC2)CN(c2ccccc2)C3=O)cc1"
  class-label: "label 0"
- molecule: "O=C(Nc1ccc(C(F)(F)F)cn1)N1CCC2(CC1)C(=O)N(c1ccccc1)C2c1ccccc1 (stereo not drawn)"
  class-label: "label 0"

Confirm if pIC50 reported for the molecule CC(C)(C)C1CCC(NC(=O)N2CCC3(CC2)C(=O)N(c2ccccc2)C3c2ccccc2)CC1 (single isomer, unassigned) is 8 or above.
label 0

* * *

- target-or-test-system: UniProt O95180
- Sequence (O95180 whole entry): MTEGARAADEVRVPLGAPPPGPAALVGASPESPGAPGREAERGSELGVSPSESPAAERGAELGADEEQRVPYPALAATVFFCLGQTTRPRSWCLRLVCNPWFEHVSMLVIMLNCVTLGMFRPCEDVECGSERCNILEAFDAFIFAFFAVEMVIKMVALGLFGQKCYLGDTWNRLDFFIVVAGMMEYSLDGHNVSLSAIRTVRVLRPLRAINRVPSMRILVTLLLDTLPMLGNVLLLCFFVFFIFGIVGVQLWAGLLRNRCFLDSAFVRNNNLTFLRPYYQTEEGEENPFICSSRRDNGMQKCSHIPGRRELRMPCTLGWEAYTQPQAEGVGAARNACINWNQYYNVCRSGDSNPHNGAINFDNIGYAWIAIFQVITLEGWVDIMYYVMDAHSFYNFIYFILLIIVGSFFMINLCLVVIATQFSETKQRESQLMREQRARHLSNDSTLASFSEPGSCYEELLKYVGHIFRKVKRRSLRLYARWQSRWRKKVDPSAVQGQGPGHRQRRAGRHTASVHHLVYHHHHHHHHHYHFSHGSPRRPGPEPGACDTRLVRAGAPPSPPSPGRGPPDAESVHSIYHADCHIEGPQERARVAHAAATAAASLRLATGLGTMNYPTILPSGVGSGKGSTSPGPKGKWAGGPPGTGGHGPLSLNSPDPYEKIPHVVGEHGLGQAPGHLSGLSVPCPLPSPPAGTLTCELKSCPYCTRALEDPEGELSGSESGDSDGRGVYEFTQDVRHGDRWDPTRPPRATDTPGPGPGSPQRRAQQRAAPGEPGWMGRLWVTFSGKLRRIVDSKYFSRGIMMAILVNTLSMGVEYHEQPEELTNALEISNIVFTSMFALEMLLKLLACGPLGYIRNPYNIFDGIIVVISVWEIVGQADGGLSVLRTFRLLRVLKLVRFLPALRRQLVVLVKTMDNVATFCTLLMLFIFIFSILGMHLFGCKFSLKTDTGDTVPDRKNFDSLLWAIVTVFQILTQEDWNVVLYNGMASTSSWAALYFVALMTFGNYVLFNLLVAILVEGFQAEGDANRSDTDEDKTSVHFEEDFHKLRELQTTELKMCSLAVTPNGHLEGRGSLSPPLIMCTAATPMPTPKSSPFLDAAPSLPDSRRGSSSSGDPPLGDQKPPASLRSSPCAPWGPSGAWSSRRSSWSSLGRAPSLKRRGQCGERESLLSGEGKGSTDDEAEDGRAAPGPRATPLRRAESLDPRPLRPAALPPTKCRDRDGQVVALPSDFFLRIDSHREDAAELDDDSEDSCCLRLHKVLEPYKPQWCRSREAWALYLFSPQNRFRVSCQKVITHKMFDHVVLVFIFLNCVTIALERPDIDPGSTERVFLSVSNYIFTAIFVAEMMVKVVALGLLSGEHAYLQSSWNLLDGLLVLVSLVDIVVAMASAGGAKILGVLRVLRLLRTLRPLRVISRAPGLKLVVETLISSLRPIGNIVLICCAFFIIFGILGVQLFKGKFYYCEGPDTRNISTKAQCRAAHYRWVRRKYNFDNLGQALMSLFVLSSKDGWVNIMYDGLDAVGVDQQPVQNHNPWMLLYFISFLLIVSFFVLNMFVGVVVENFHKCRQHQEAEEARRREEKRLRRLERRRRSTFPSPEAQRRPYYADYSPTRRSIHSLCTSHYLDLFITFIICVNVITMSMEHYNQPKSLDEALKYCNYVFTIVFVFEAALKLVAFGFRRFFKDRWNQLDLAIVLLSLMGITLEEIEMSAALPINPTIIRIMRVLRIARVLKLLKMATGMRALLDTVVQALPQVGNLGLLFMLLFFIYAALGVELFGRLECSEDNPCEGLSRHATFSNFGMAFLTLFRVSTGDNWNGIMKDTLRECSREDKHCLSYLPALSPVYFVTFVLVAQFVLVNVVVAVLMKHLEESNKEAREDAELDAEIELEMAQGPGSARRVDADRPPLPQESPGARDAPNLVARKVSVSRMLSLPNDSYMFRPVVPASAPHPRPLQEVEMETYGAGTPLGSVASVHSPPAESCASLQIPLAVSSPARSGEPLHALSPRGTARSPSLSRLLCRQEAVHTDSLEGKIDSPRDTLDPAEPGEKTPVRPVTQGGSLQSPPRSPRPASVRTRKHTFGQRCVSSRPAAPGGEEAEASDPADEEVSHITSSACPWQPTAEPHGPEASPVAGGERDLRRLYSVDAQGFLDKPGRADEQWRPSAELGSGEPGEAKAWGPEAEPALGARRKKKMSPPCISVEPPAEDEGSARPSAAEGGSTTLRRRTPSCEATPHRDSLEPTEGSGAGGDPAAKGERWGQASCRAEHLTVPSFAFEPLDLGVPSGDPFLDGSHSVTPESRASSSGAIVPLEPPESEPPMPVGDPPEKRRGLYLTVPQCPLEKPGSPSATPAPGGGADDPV
- measurement-protocol: IonWorks screen for hCaV3.2 (T-type calcium current, voltage clamp)
- condition-summary: IonWorks HT, HEK cells, 10 min incubation, pulse 10, 8-point curve; read-out: IW hCav3 2 IC50
Listed compounds paired with reported IC50
# number only, unit nM dropped from output

These solved cases illustrate the format of a correct answer.
- compound: "N#Cc1cccc(NC(=O)N2CCC3(CC2)C(=O)N(c2cncc(Cl)c2)C3c2ccccn2)c1 (centres unmarked)"
  target-or-test-system: "UniProt O95180"
  measure: "IC50"
  experimental-result: 1480
- compound: "CC(NC(=O)N1CCC2(CC1)C(=O)N(c1cccc(F)c1)C2c1ccc(Cl)cc1)c1ccccn1 (centres unmarked)"
  target-or-test-system: "UniProt O95180"
  measure: "IC50"
  experimental-result: 2170
- compound: "O=C(Nc1cc(F)cc(F)c1)N1CCC2(CC1)C(=O)N(c1cccc(Cl)c1)C2c1cccnc1 (centres unmarked) [drawing 635]"
  target-or-test-system: "UniProt O95180"
  measure: "IC50"
  experimental-result: 21

State its IC50: CC[C@H](C)[C@H](NC(=O)N1CCC2(CC1)C(=O)N(c1cccc(Cl)c1)C2c1ccccn1)C(=O)OC (some centres unmarked) [drawing 571]
584

Provide measured IC50 value, entry: N#Cc1cccc(NC(=O)N2CCC3(CC2)C(=O)N(c2cccc(C#N)c2)C3c2ccccn2)c1 (centres unmarked) [drawing 594]
1170

Tell me measured IC50 for O=C(Nc1cccc(C(F)(F)F)c1)N1CCC2(CC1)C(=O)N(c1ccc(F)c(Cl)c1)C2c1ccccn1 (centres unmarked) [drawing 560] please.
4.33

Find the measured IC50 of O=C(Nc1cc(F)cc(F)c1)N1CCC2(CC1)C(=O)N(c1ccccn1)C2c1ccccn1 (centres unmarked) and report it.
1160

Tell us which IC50 value is on record for C[C@H](NC(=O)N1CCC2(CC1)C(=O)N(c1ccccc1S(C)(=O)=O)C2c1ccc(Cl)cc1)c1ccc(F)cc1 (some centres unmarked)
611
